Quick reference for pIC50 among some compounds
# system: human DGKζ (Homo sapiens)
# Construct: TVMV protease cleavage site (C); Hexa-His (C); made in house; host or cells: Sf9 insect cells (baculovirus, Bac-to-Bac)
# procedure.details: DGKζ LIPGLO assay (extruded liposome substrate), in vitro DGK inhibition
# Format: biochemical
# assay.conditions: liposome (LIPGLO) assay; read-out: DGKz LIPGLO IC50
# reply with the number alone; pIC50 is -log10 of concentration in mol/L

Example entries begin here.
| compound | recorded.number |
| --- | --- |
| CC[C@H]1CN(C(c2ccc(C)cc2)c2ccc(Cl)cc2)[C@H](C)CN1c1cc(=O)n(C)c2ccc(C#N)nc12 (single isomer, unassigned) [Example 1122] | 6.08 |
| CC(c1ccc(Cl)cc1F)N1C[C@H](C)N(c2cc(=O)n(C)c3ccc(C#N)nc23)C[C@H]1C (stereo partly drawn) | 6.80 |
| C[C@@H]1CN(c2cc(=O)n(C)c3ccc(C#N)nc23)[C@@H](C)CN1C(c1ccc(F)cc1)c1ccc(Cl)cn1 (single isomer, unassigned) [Example 211] | 6.82 |
| COC[C@@H]1CN(c2cc(=O)n(C)c3ccc(C#N)nc23)[C@@H](C)CN1Cc1cc(F)c(F)c(F)c1 | 6.48 |
| COC(=O)C1CN(c2c(F)c(=O)n(C)c3ccc(C#N)nc23)CCN1C(c1ccc(Cl)cc1)c1ccc(Cl)cc1 (single isomer, unassigned) [Example 95] | 6.12 |

Moving on to another compound below.
Give the measured pIC50 of COc1cc(F)ccc1C(N1C[C@H](C)N(c2cc(=O)n(C)c3ccc(C#N)nc23)C[C@H]1C)C(C)(C)C (single isomer, unassigned) [Example 186] .
4.85

----------
# system: human DGKζ (Homo sapiens, UniProt Q13574)
# Construct: TVMV protease cleavage site (C); Hexa-His (C); made in house; host or cells: Sf9 insect cells (baculovirus, Bac-to-Bac)
# Sequence (Q13574 with tags, fused parts or gaps isoform Q13574-4): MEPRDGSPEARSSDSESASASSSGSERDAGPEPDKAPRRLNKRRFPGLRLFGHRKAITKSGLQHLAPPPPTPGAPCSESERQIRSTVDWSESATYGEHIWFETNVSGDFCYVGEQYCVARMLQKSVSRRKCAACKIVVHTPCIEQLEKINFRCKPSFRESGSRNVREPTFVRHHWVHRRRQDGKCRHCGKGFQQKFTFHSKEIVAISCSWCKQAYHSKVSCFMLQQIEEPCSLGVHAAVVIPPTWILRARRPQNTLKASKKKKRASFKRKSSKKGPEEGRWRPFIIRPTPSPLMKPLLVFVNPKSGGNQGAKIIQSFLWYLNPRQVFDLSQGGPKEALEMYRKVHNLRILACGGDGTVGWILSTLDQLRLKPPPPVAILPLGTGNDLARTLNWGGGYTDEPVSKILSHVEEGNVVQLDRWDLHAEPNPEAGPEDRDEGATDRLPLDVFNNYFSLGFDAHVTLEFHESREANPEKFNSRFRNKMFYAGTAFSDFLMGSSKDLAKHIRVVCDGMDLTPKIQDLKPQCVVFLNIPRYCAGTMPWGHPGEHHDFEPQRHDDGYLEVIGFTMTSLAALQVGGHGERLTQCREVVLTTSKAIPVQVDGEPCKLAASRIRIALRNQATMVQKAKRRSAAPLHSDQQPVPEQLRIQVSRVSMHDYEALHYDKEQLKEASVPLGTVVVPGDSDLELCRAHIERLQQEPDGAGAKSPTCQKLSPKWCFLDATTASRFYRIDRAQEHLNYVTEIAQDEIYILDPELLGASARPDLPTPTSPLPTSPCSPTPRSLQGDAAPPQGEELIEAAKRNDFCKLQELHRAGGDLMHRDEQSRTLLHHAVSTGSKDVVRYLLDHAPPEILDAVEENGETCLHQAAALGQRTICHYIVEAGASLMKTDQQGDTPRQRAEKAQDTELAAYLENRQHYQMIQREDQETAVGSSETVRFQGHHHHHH
# procedure.details: DGKζ LIPGLO assay (extruded liposome substrate), in vitro DGK inhibition
# Assay type: biochemical
# assay.conditions: liposome (LIPGLO) assay; read-out: DGKz LIPGLO IC50
readout.kind: IC50 (µM)
Just the number in µM, nothing appended.

Example entries begin here.
| compound | readout.kind | recorded.number |
| --- | --- | --- |
| Cc1ccnc(C(c2ccc(F)cc2)N2C[C@H](C)N(c3cc(=O)n(C)c4ccc(C#N)nc34)C[C@H]2C)c1 (single isomer, unassigned) [Example 456] | IC50 | 1 |
| C[C@@H]1CN(C(c2ccc(F)cc2)c2ccc(F)cc2)[C@H](C)CN1c1c(Cl)c(=O)n(C)c2ccc(C#N)nc12 | IC50 | 2.7 |

Give the measured IC50 of C[C@@H]1CN(c2cc(=O)n(C)c3ccc(C#N)nc23)[C@@H](C)CN1C(c1ccc(F)cc1)c1cnn(C)c1 (single isomer, unassigned) [Example 702] .
2.9

Give the measured IC50 of COCCOC[C@@H]1CN(c2cc(=O)n(C)c3ccc(C#N)nc23)[C@@H](C)CN1C(C)c1ccc(OC(F)(F)F)cc1 (single isomer, unassigned) [Example 1406] .
0.95

Give the measured IC50 of C[C@@H]1CN(c2cc(=O)n(C)c3ccc(C#N)nc23)[C@@H](C)CN1Cc1ccc(OC(F)(F)F)cc1F (single isomer, unassigned) [Example 591] .
3.9

Give the measured IC50 of C[C@@H]1CN(c2cc(=O)n(C)c3ccc(C#N)nc23)[C@@H](C)CN1C(c1ccc(Cl)cc1)c1ccccn1 (mixture of isomers) [Example 403] .
0.46

Give the measured IC50 of C[C@@H]1CN(c2cc(=O)n(C)c3ccc(C#N)nc23)[C@@H](C)CN1C(c1ccc(F)cc1)c1ccc(Cl)cc1 (single isomer, unassigned) [Example 303] .
0.69

----------
# system: human DGKζ (Homo sapiens)
# Construct: TVMV protease cleavage site (C); Hexa-His (C); made in house; host or cells: Sf9 insect cells (baculovirus, Bac-to-Bac)
# procedure.details: DGKζ LIPGLO assay (extruded liposome substrate), in vitro DGK inhibition
# Format: biochemical
# assay.conditions: liposome (LIPGLO) assay; read-out: DGKz LIPGLO IC50
pIC50: −log10 of the molar value.
Please mark yes if the recorded pIC50 is equal to or greater than 6, and no if it falls below.

| molecule | category.label |
| --- | --- |
| C[C@@H]1CN(c2cc(=O)n(C)c3ccc(C#N)nc23)[C@@H](C)CN1Cc1ccc(OC(F)(F)F)c(F)c1 | no |
| CCC(c1ccc(OC(F)(F)F)cc1F)N1C[C@H](CC)N(c2cc(=O)n(C)c3ccc(C#N)nc23)C[C@H]1CC (single isomer, unassigned) [Example 1058] | yes |
| C[C@@H]1CN(c2cc(=O)n(C)c3ccc(C#N)nc23)[C@@H](C)CN1C(c1ccc(Cl)cc1)c1ccncn1 (single isomer, unassigned) [Example 396] | no |
| C[C@@H]1CN(c2cc(=O)n(C)c3ccc(C#N)nc23)[C@@H](C)CN1Cc1c(F)cc(F)cc1F | yes |
| COc1cc(F)ccc1C(c1ccc(F)cc1)N1C[C@H](C)N(c2cc(=O)n(C)c3ccc(C#N)nc23)C[C@H]1C (single isomer, unassigned) [Example 119] | no |

Field: next molecule
Record `CC[C@@H]1CN(c2c(Cl)c(=O)n(C)c3ccc(C#N)nc23)CCN1C(c1ccc(F)cc1)c1ccc(F)cc1` ; criterion: pIC50 no lower than 6. Met?
yes

----------
# system: human DGKα (Homo sapiens, UniProt P23743)
# Construct: TVMV protease cleavage site (C); Hexa-His (C); made in house; host or cells: Sf9 insect cells (baculovirus, Bac-to-Bac)
# Sequence (P23743 with tags, fused parts or gaps): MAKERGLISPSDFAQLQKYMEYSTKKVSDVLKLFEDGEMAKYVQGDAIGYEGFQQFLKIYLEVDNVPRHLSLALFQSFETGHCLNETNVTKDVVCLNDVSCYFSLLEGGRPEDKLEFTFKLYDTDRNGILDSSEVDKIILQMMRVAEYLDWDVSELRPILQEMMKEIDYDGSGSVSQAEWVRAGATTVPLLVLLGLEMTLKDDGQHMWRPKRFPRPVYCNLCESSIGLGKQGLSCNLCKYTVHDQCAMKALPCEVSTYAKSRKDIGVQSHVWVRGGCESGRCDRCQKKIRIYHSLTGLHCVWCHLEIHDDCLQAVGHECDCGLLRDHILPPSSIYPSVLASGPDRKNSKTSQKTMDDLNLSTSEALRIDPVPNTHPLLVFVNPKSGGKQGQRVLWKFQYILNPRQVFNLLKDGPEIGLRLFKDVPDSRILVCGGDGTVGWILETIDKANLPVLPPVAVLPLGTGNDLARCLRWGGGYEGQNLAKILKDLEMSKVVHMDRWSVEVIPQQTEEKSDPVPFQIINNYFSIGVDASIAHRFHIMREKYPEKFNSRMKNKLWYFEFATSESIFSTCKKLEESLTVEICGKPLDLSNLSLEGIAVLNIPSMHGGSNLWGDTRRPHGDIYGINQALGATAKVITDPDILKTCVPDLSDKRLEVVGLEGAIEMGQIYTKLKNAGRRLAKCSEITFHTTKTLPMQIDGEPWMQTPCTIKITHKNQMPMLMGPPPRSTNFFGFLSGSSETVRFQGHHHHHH
# procedure.details: DGKα LIPGLO assay (extruded liposome substrate), in vitro DGK inhibition
# Type: biochemical
# assay.conditions: liposome (LIPGLO) assay; read-out: DGKa LIPGLO IC50
// classify(record): look up IC50 in ranges low range (below 100 nM), mid range (100 nM to below 20000 nM), high range (20000 nM or more)

| compound | system | category.label |
| --- | --- | --- |
| C[C@H]1CN(C(c2ccc(F)cc2)c2ccc(F)cc2)[C@H](CN2CC(O)C2)CN1c1cc(=O)n(C)c2ccc(C#N)nc12 | human DGKα (Homo sapiens, UniProt P23743) | high range |
| C[C@@H]1CN(c2c(C#N)c(=O)n(C)c3ccc(C#N)nc23)CCN1C(c1ccc(F)cc1)c1ccncn1 (single isomer, unassigned) [Example 313] | human DGKα (Homo sapiens, UniProt P23743) | mid range |
| COc1cc(F)ccc1C(c1ccc(F)cc1)N1C[C@H](C)N(c2cc(=O)n(C)c3ccc(C#N)nc23)C[C@H]1C (single isomer, unassigned) [Example 119] | human DGKα (Homo sapiens, UniProt P23743) | high range |

Exam item: assign CC(c1ccc(OC(C)(C)C)cc1)N1C[C@H](C)N(c2cc(=O)n(C)c3ccc(C#N)nc23)C[C@H]1C (single isomer, unassigned) [Example 1442] to the correct category.
low range

Exam item: assign Cn1c(=O)c(C#N)c(N2CCN(C(c3ccc(F)cc3)c3ccc(F)cc3)C(C(=O)O)C2)c2nc(C#N)ccc21 (single isomer, unassigned) [Example 53] to the correct category.
high range

Exam item: assign COc1cc(F)c(C(C)N2C[C@H](C)N(c3cc(=O)n(C)c4ccc(C#N)nc34)C[C@H]2C)cc1OC (single isomer, unassigned) [Example 1246] to the correct category.
mid range

Exam item: assign CC(c1c(F)cccc1F)N1C[C@H](C)N(c2cc(=O)n(C)c3ccc(C#N)nc23)C[C@H]1C (stereo partly drawn) to the correct category.
mid range

Exam item: assign Cn1c(=O)cc(N2CCN(C(c3ccc(F)cc3)c3ccc(F)cc3)CC2C#N)c2nc(C#N)ccc21 (single isomer, unassigned) [Example 144] to the correct category.
mid range

Exam item: assign C[C@@H]1CN(c2cc(=O)n(C)c3ccc(C#N)nc23)[C@@H](C)CN1C(c1ccc(OC(F)(F)F)cc1)c1cccc(F)n1 (single isomer, unassigned) [Example 368] to the correct category.
mid range

----------
# system: human DGKα (Homo sapiens, UniProt P23743)
# Construct: TVMV protease cleavage site (C); Hexa-His (C); made in house; host or cells: Sf9 insect cells (baculovirus, Bac-to-Bac)
# procedure.details: DGKα LIPGLO assay (extruded liposome substrate), in vitro DGK inhibition
# Assay type: biochemical
# assay.conditions: liposome (LIPGLO) assay; read-out: DGKa LIPGLO IC50
Lab note: anything with IC50 below 10 µM is marked 1; values at 10 µM or higher are marked -1.

| compound | category.label |
| --- | --- |
| CC(=O)N1CC(c2noc(C(c3ccc(F)cc3)N3C[C@H](C)N(c4cc(=O)n(C)c5ccc(C#N)nc45)C[C@H]3C)n2)C1 (single isomer, unassigned) [Example 1297] | 1 |
| COC(=O)C1CN(c2cc(=O)n(C)c3ccc(C#N)nc23)CCN1C(c1ccc(F)cc1)c1ccc(F)cc1 (single isomer, unassigned) [Example 39] | -1 |
| CC[C@H]1CN(Cc2cc(F)c(F)c(F)c2)[C@H](C)CN1c1cc(=O)n(C)c2ccc(C#N)nc12 | 1 |
| C[C@@H]1CN(c2cc(=O)n(C)c3ccc(C#N)nc23)[C@@H](C)CN1C(c1ccc(F)cc1)c1cccc(S(C)(=O)=O)c1 (single isomer, unassigned) [Example 689] | 1 |
| Cn1c(=O)cc(N2CCN(C(c3ccc(F)cc3)c3ccc(F)cc3)C(CO)C2)c2nc(C#N)ccc21 (single isomer, unassigned) [Example 1] | 1 |

Field: next compound
Check if IC50 falls below 10 µM for `C[C@@H]1CN(c2cc(=O)n(C)c3ccc(C#N)nc23)[C@@H](C)CN1Cc1nnc(C(F)(F)F)o1` .
-1

Data origin, for the record: patent US10669272B2
